Listing of entries alongside the reported EC50.
Target: T1, human EpCAM expressed on cells (CHO, Colo205, 293) (human, UniProt P16422 24-314)
T1 construct: whole, on cells; also called CHO cells expressing human EpCAM; Colo205 cells expressing human EpCAM
T1 sequence (looked up): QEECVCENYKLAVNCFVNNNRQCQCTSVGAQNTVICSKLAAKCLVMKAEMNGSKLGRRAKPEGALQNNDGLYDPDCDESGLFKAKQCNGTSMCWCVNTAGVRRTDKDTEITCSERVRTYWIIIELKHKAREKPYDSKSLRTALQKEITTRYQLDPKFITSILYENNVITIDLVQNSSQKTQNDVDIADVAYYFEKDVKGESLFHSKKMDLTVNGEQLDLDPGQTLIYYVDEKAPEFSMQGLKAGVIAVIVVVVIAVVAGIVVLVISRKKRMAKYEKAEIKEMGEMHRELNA
Assay: FACS on Colo205 cells expressing human EpCAM, pH 7.4
Quick note: give the figure in µg/mL, leave out the unit.

# count of solved cases: 3
Task: Name the reported EC50 value associated with the binder BAP-105.4-01-05 (antibody, V domains shown, Humanized) VH: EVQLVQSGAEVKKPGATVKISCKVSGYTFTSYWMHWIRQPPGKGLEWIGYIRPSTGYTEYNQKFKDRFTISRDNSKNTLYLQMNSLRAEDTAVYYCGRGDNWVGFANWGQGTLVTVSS VL: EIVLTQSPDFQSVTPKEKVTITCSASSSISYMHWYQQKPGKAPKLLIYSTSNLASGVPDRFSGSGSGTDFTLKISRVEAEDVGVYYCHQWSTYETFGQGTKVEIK
Result: 0.418

Task: Requested field: EC50. Item: BAP-105.4-01-02 (antibody, V domains shown, Humanized) VH: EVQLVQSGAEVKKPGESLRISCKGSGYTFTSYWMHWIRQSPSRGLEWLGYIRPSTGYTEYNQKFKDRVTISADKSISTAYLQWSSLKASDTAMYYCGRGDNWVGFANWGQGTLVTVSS VL: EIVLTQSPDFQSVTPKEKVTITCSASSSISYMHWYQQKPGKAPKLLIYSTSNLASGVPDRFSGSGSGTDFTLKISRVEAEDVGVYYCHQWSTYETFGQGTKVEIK
Result: 0.397

Task: Can you look up the measured EC50 of BAP-105.4-03-02 (antibody, V domains shown, Humanized) VH: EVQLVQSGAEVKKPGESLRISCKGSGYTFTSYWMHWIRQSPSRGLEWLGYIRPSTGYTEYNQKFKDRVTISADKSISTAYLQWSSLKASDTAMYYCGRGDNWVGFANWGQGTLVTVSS VL: EIVMTQSPATLSVSPGERATLSCSASSSISYMHWYQQKPGKAPKLLIYSTSNLASGIPPRFSGSGYGTDFTLTINNIESEDAAYYFCHQWSTYETFGQGTKVEIK for me?
Result: 0.67

Now look at this one.
Task: EC50 for BAP-105-01-01 (antibody, V domains shown, Non-conditionally active control; also called template antibody (WT)) VH: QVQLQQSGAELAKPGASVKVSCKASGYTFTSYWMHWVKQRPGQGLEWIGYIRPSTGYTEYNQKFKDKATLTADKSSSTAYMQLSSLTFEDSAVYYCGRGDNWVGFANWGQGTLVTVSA VL: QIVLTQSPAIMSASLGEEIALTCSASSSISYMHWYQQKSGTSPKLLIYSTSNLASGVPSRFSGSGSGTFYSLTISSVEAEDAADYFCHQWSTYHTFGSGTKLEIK ?
Result: 0.268
